Reference source: PubChem BioAssay (NCI)

Provide the recorded TGI for the entries that follow.
Tested on: NCI-H226 lung
Test: NCI tumour cell line growth inhibition, 48 h

// solved cases for TGI follow
- Compound: "CC(C)c1cc(-c2n[nH]c(=O)n2-c2ccc3c(ccn3C)c2)c(O)cc1O"
  TGI: "60.1 µM"
- Compound: "COc1ccc(C2=Nc3ccccc3NC(=O)C2)cc1"
  TGI: "> 100 µM"
- Compound: "CC1(C)CC(=O)c2c(C(F)(F)F)nn(-c3ccc(C(N)=O)c(NC4CCC(OC(=O)CN)CC4)c3)c2C1 (configuration not stated)"
  TGI: "> 56.4 µM"

For every item below, please supply its TGI.
1. O=CC(=C(I)I)c1ccccc1
2. Cn1cnc(CCc2ccccc2)n1
3. CC(CCC(=O)O)[C@H]1CCC2[C@@H]3CC[C@@H]4CC(O)CC[C@]4(C)C3CC[C@@]21C (some centres not stated)
4. CCOC(=O)c1c(N2CCCC2)nsc1Nc1ccc(F)cc1
5. CCCCCCCCN=C(N)c1ccc(N2CCN(c3ccc(C(N)=NCCCCCCCC)cc3)CC2)cc1

output:
1. 32 µM
2. > 100 µM
3. > 100 µM
4. > 100 µM
5. 5.44 µM

For every item below, please supply its TGI.
1. COc1ccc(/C=C2\NC(=S)N(CN3CCCCC3)C2=O)cc1
2. CCCCCCCCCCC(C(=O)O)C1(C(=O)O)CCC(=O)O1 (configuration not stated)

output:
["> 100 µM", "> 100 µM"]

For every item below, please supply its TGI.
1. Cc1ccc(N=Nc2c(O)c(C(=O)O)cc3ccccc23)cc1C
2. CSc1ncc2c(C#N)c3sc4ccccc4n3c(=O)c2n1
3. NC(=O)c1cc2cc(Cl)cc(Cl)c2oc1=Nc1ccc(F)cc1

output:
> 100 µM
> 100 µM
43.5 µM

For every item below, please supply its TGI.
1. CCOC(=O)c1nc2ccc(Cl)cc2c2c1Cc1ccccc1-2
2. Nc1ccn(CCNCCn2cnc3nc(N)[nH]c(=O)c32)c(=O)n1
3. N=C(N)c1ccc(-c2ccc(-c3cc(Cl)cc(Cl)c3)o2)nc1
4. COc1cc(/C=C/c2cc(O)c3cc(C(C)=O)c(=O)oc3c2)cc2c1O[C@]1(C)CC[C@@H](O)C(C)(C)[C@H]1C2
5. CN1CCC(n2cnc(-c3ccc(F)cc3)c2-c2ccnc(NCCO)n2)CC1
6. CC1(C)C(=NNC(=O)C[N+](C)(C)C)C(C)(C)C1=NNC(=O)C[N+](C)(C)C
7. COc1ccc(/C(C#N)=C/c2ccccc2OC)cc1
8. CCOC(=O)c1cc(NS(=O)(=O)c2ccccc2)cc(C(=O)OCC)c1

output:
> 100 µM
> 100 µM
5.19 µM
> 64.9 µM
> 25 µM
> 100 µM
> 100 µM
> 100 µM

For every item below, please supply its TGI.
1. O=Nc1c(O)cc(Nc2ccc(Br)cc2)c2ccccc12
2. CCOC(=O)N/N=C(/OCC)c1ccccc1
3. Oc1cccc2ccc(N/N=C/c3cc(CN4CCCCC4)c(O)c4ncccc34)nc12

output:
10.5 µM
> 100 µM
2.9 µM

For every item below, please supply its TGI.
1. ONc1ncnc2nc[nH]c12
2. C=CCC[CH2][Sn]([c]1ccccc1)([c]1ccccc1)[c]1ccccc1

output:
> 100 µM
3.33 µM

For every item below, please supply its TGI.
1. O=[N+]([O-])C(C(Cl)=C(Cl)Cl)=C(N(Cc1ccccc1)Cc1ccccc1)N(Cc1ccccc1)Cc1ccccc1
2. CC[C@@H](C(=O)O)C1CC[C@H](C)C([C@@H](C)[C@H](O)[C@H](C)C(=O)[C@H](CC)C2O[C@]3(C=C[C@@H](O)[C@]4(CC[C@@](C)(C5CC[C@](O)(CC)[C@H](C)O5)O4)O3)[C@H](C)C[C@@H]2C)O1 (some centres not stated)

output:
1: > 100 µM; 2: 10.8 µM

For every item below, please supply its TGI.
1. O=C(NCCCCCCNC(=O)n1cc(F)c(=O)[nH]c1=O)NCCCOCCOCCOCCOCCOCCOCCOCCOCCOCCOCCOCCOCCOCCOCCOCCOCCOCCOCCOCCOCCOCCCNC(=O)C(O)C(O)C(O)C(O)CO (configuration not stated)
2. CNC(=O)OC(C)CN1c2ccccc2Sc2ccc(Cl)cc21 (configuration not stated)
3. CCOC(=O)COc1ccccc1/C=C1\CCC(CN(C)C)C1=O (configuration not stated)
4. COc1cccc(-n2ncc3c(N/N=C/c4ccc(C(=O)NCCN(C)C)cc4)ncnc32)c1
5. COC12OC3(C4OC41)C(C(=O)O[C@H]3CO[Si](C)(C)C(C)(C)C)C2C(=O)Oc1ccccc1 (some centres not stated)
6. NCCOCCOCCNc1nc(Cc2ccccc2)nc(NCCCN2CCCC2=O)n1

output:
1: > 100 µM; 2: > 10 µM; 3: 32.8 µM; 4: > 22.2 µM; 5: > 100 µM; 6: > 100 µM
